Entry source: the nanobody polyreactivity screen of Harvey et al. (2022)

Assay: yeast display, Sf9 membrane polyspecificity reagent, FACS + sequencing; frameworks hold sequencing errors
measurementLabel: polyreactivity (PSR sort gate)

Example sequences with recorded polyreactivity (PSR sort gate):
QVQLVESGAGLVQAGGSLRLTCAASGSTFNRYVMGWYRQAPGKERDFVATISQGGGSTYYADSVKGRFTISRDNAKNTVYLHMNSLKPDVTAVYYCAAVSTRQYRYPHEYWGQGTQVTVSS ... high polyreactivity
QVQLVESGGGLVQAGGSLRLSCAASGSTFTQYAMGWYRQAPAKERELFAAISWGGGTTRYADSVKGRFTISRDNAKNTVYLQMNSLKPEDTAVYYCAKRVRTGSVGNFNYWGQGTQVTVSS ... high polyreactivity
QVQLVESGGGLVQAGGSLRLSCAASGRIFPAYVMGWYRQAPGKERELVATIDNGGGTYYADSVKGRFTISRDNAKNTVYLQMNSLKPEDPAVYYCARDRHVRWGLKMDYWGQGTQVTVSS ... low polyreactivity
QVQLVESGGGLVQAGGSLRLSCAASGLIFYVYAMGWYRQAPGKERELVADISTAGGITNYADSVKGRFTISRDNAKNTVYLQMNSLKPEDTAVYYCAATQPWYNTRTRYGSWGQGTQVTVSS ... low polyreactivity
QVQLVESGGRLVQAGGSLRLSCAASGRTFEIYSMGRYRHAPGKERELVAAITSGGSTYYADSVKGRFTISRDNAKNTVYLQMNSLKPEDTAVYYCNAYLYYDAHGVDYWGQGTQVTVSS ... high polyreactivity
QVQLVESGGGLVQAGGSLRLSCAASGRIFNSNAMGWYRQAPGKERELAAAISKRGGSTFYADSVKGRFTISRDNAKNTVYLQMNSLKPEDTAVYYCNARRLSTGFERYDYWGQGTQVTVSS ... high polyreactivity
QVQLVESGGGLVQAGGSLRLSCAASGGTFLVYAMGWYRQAPGKERELVAAITRSGGSTYYADSVKGRFTISRDNAKNTVYLQMNSLKPEDTAVYYCNARYRNSGRYWDWYYYWGQGTQVTVSS ... high polyreactivity
QVQLVESGGGLVQAGGSLRLSCAASGIILYRNGMGWYRQAPGKERELVAAISWSTGSTYYADSVKGRFTISRDNAKYTVYLQMNSLKPEDTAVYYCATDYVGYSFGMYYWGQGTQVTVSS ... low polyreactivity

For each of the sequences below, note its polyreactivity (PSR sort gate).
1. QVHLVESGRGLVQAGGSLRLSCAASGRTLYRYAMGWYRQAPGKERELVAAINQSGGRTYYADSVKGRFTISRDNAKNTVYFQMNSLKPEDTAVYYCAASPVRVGKVIDGRDYWGQGTQVTVSS
2. QVQLVESGGGLVQAGGSLRLSCAASGRIFSYYAMGWYRQAPGKERELVAAISNGGNTYYADSVKGRFTISRDNAKNTVYLQMNSLKPEDTAVYYCYVRRYDYWGQGTQVTVSS
3. QVQLVETGGGLVQAGGSLRLSCAASGSTFESNAMGWYRQAPGKERELVAAISRGGNTYYADSEKGRFTISRDNAKNTVYLQMNSLKPEDTAVYYCNVDRGNPVPPSEYWGQGTQVTVSS

Reply |
high polyreactivity
high polyreactivity
low polyreactivity

Count: 2. Required value per item: polyreactivity (PSR sort gate).
1. QVHLVESGGGLVQAGGSLRLSCAASGSISTNYPMGWYRPAPGKERQLVAAISSSGGSTYYADSVKGRFTISRDNAKYTVYLQMNSLKPEDTAVYYCAATYWGRAYQGYRNLRYGYWGQGTQVTVSS
2. QVQLVESGGGLVQAGGSLRLSCAASGLIFYSNAMGWYRQAPGKEREFVAAITRRGGSTYYADSVKGRFTISRDNAKNTVYLQMNSLKPEDTAVYYCNARYYHKRSTRVIFQYDYWGQGTQVTVSS

Reply |
high polyreactivity
high polyreactivity

Below are some sequences; for each one, tell me its polyreactivity (PSR sort gate).
1. QVQLVESGGGLVQAGGSLRLTCAASGFTFGRYAMGWYRQAPGKERELVAAISTRGGSTYYADSVKGRFTISRDNAKNTVYLQMNSLKPEDTAVYYCAAGGYYVRYDYWGQGTQVTVSS
2. QVQLVESGGGLVQAGGSLRLSCAASGLTLYRYALGWYRQAPGKERELVAAISWGGGSTYYADSVKGRFTISRDNAKNTVYLQMNSLKPEDTAVYYCAAGRLLYIPRYYYWGQGTQVTVSS
3. QVQLVESGGGLVQAGGSLRLSSAASGSTFWYYAMGWYRQAPGTERELVAGITQSGGSTYYADSVKGRFTISRDNAKNTVYLQMNSLKPEDTAVYYCAKDGRVSGDFDYWGQGTQVTVSS
4. QVQLVESGGGLVQAGGSLRLSCAASGRIFVGYAMVWYRQAPGKERELVAGISRSGDSTYYADSVKGRFTISRDNAKNTVYLQMNSLKPEDTAVYYCAARIIYWGYYYWGQGTQVTVSS
5. QVQLVESGGGLVQAGGSLRLSCAASGSIFWPYAMGWYRQAPGKEREFVDAITWSGGSTYYADSVKGRFTISRDNAKNTVYLQMNSLKPEDTAVYYCAAVPYTRWKGADGDYWGQGTQVTVSS
6. QVQLVESGGGLVQAGGSLRLSCAASRIIFDDNAMGWYRQAPGKEMELVAAISRRGGSTYYADSVKGRFTISRDNAKNTVYLQMNSLKPEDTAVYYCAATTRTSSLYNYWGQGTQVTVSS
7. QVQLVESGGGLVKAGGSLRLSCAASGLIFKLNAMGWYRQSPGKERELVAAIRASTGSTYYADSVKGRFTISRDNAKNTVYLQMNSLKPEDTAVYYCAVSLRWYFFLMDYWGQGTQVTVSS
8. QVQLVESGGGLVQAGGSLRLSCAASGRTSTIYTMGWYRQAPGKEREIVASISAGAGTYYADSVKGRFTISRDNAKNTVYLQLNSLKPEDTAVYYCNASVYWRSTRRHQMDYWGQGTQVTVSS

Reply |
["high polyreactivity", "high polyreactivity", "low polyreactivity", "high polyreactivity", "high polyreactivity", "high polyreactivity", "high polyreactivity", "high polyreactivity"]
